# Test system: LRRK2 (endogenous, HiBit tagged) (Homo sapiens)
# Construct: endogenous in cells; host or cells: HEK293 cells with HiBit knock-in at the endogenous LRRK2 locus, stably expressing firefly luciferase
# Test method notes: Endogenous LRRK2 degradation assay, endogenous gene C-terminally HiBit-tagged in HEK293 cells (Nano-Glo Dual Luciferase)
# Assay type: cell-based
# Assay conditions: endogenous HiBit-tagged LRRK2 in HEK293 cells, 24 hours treatment; read-out: Endogenous WT Dmax
Measured Dmax, listed per entry.

Before answering, review these 2 worked examples.
| Compound | Dmax |
| --- | --- |
| CC1(Oc2ccc3[nH]nc(-c4cc(N5CCC(CN6CCN(CC7CCN(c8c(F)cc9c(c8F)CN(C8CCC(=O)NC8=O)C9=O)CC7)CC6)CC5)ncn4)c3c2)CC1 (stereo not drawn) | 50 to 70% |
| CC1(Oc2ccc3[nH]nc(-c4cc(N5CCC(CCN6CCC7(CN(c8ccc9c(c8F)CN(C8CCC(=O)NC8=O)C9=O)C7)C(F)(F)C6)CC5)ncn4)c3c2)CC1 (stereo not drawn) | 50 to 70% |

// moving on: another record for Dmax
Could you please provide reported Dmax for CC1(Oc2ccc3[nH]nc(-c4cc(N5CCC(OCCN6CCC7(CN(c8ccc9c(c8F)CN(C8CCC(=O)NC8=O)C9=O)C7)C(F)(F)C6)CC5)ncn4)c3c2)CC1 (stereo not drawn) ? Thanks!
50 to 70%

====

# Test system: LRRK2 (endogenous, HiBit tagged) (Homo sapiens, UniProt Q5S007)
# Construct: endogenous in cells; host or cells: HEK293 cells with HiBit knock-in at the endogenous LRRK2 locus, stably expressing firefly luciferase
# Test method notes: Endogenous LRRK2 degradation assay, endogenous gene C-terminally HiBit-tagged in HEK293 cells (Nano-Glo Dual Luciferase)
# Type: cell-based
# Assay conditions: endogenous HiBit-tagged LRRK2 in HEK293 cells, 24 hours treatment; read-out: **Endogenous WT Dmax (%)
In this section, each of the compounds is paired with its reported Dmax.

See these solved cases before continuing.
| Compound | Result value |
| --- | --- |
| COc1c(N2CCC(CN3CCN(CC4CCN(c5cc(-c6n[nH]c7cnc(OC8(C)CC8)cc67)ncn5)CC4)CC3(C)C)CC2)ccc2c1CN(C1CCC(=O)NC1=O)C2=O (centres unmarked) | 50 to 70% |
| COc1c(N2CCC(CN3CCN(C(C)(C)C4CCN(c5cc(-c6n[nH]c7ccc(OC8(C)CC8)cc67)ncn5)CC4)CC3)CC2)ccc2c1CN(C1CCC(=O)NC1=O)C2=O (centres unmarked) | 50 to 70% |
| COc1c(N2CCC(O[C@H]3CC[C@H](CN4CCN(c5cc(-c6n[nH]c7cnc(OC8(C)CC8)cc67)ncn5)CC4)CC3)CC2)ccc2c1CN(C1CCC(=O)NC1=O)C2=O (some centres unmarked) | < 50% |
| COc1c(N2CCN(C[C@H]3CC[C@H](OC4CCN(c5cc(-c6n[nH]c7cnc(OC8(C)CC8)cc67)ncn5)CC4)CC3)CC2)ccc2c1CN(C1CCC(=O)NC1=O)C2=O (some centres unmarked) | 50 to 70% |

# evaluate next
Answer with reported Dmax of C[C@@H]1CN(CC2CCN(c3ccc4c(c3F)CN(C3CCC(=O)NC3=O)C4=O)CC2)C[C@H](C)N1CC1CCN(c2cc(-c3n[nH]c4ccc(OC5(C)CC5)cc34)ncn2)CC1 (some centres unmarked)
50 to 70%

====

DC50 by entry:
# Test system: wildtype LRRK2 (Homo sapiens)
# Construct: expressed in transfected cells; host or cells: HEK293 (ATCC CRL-1573), transient transfection, mammalian expression vector with ubiquitin promoter
# Sequence (Q5S007 whole entry): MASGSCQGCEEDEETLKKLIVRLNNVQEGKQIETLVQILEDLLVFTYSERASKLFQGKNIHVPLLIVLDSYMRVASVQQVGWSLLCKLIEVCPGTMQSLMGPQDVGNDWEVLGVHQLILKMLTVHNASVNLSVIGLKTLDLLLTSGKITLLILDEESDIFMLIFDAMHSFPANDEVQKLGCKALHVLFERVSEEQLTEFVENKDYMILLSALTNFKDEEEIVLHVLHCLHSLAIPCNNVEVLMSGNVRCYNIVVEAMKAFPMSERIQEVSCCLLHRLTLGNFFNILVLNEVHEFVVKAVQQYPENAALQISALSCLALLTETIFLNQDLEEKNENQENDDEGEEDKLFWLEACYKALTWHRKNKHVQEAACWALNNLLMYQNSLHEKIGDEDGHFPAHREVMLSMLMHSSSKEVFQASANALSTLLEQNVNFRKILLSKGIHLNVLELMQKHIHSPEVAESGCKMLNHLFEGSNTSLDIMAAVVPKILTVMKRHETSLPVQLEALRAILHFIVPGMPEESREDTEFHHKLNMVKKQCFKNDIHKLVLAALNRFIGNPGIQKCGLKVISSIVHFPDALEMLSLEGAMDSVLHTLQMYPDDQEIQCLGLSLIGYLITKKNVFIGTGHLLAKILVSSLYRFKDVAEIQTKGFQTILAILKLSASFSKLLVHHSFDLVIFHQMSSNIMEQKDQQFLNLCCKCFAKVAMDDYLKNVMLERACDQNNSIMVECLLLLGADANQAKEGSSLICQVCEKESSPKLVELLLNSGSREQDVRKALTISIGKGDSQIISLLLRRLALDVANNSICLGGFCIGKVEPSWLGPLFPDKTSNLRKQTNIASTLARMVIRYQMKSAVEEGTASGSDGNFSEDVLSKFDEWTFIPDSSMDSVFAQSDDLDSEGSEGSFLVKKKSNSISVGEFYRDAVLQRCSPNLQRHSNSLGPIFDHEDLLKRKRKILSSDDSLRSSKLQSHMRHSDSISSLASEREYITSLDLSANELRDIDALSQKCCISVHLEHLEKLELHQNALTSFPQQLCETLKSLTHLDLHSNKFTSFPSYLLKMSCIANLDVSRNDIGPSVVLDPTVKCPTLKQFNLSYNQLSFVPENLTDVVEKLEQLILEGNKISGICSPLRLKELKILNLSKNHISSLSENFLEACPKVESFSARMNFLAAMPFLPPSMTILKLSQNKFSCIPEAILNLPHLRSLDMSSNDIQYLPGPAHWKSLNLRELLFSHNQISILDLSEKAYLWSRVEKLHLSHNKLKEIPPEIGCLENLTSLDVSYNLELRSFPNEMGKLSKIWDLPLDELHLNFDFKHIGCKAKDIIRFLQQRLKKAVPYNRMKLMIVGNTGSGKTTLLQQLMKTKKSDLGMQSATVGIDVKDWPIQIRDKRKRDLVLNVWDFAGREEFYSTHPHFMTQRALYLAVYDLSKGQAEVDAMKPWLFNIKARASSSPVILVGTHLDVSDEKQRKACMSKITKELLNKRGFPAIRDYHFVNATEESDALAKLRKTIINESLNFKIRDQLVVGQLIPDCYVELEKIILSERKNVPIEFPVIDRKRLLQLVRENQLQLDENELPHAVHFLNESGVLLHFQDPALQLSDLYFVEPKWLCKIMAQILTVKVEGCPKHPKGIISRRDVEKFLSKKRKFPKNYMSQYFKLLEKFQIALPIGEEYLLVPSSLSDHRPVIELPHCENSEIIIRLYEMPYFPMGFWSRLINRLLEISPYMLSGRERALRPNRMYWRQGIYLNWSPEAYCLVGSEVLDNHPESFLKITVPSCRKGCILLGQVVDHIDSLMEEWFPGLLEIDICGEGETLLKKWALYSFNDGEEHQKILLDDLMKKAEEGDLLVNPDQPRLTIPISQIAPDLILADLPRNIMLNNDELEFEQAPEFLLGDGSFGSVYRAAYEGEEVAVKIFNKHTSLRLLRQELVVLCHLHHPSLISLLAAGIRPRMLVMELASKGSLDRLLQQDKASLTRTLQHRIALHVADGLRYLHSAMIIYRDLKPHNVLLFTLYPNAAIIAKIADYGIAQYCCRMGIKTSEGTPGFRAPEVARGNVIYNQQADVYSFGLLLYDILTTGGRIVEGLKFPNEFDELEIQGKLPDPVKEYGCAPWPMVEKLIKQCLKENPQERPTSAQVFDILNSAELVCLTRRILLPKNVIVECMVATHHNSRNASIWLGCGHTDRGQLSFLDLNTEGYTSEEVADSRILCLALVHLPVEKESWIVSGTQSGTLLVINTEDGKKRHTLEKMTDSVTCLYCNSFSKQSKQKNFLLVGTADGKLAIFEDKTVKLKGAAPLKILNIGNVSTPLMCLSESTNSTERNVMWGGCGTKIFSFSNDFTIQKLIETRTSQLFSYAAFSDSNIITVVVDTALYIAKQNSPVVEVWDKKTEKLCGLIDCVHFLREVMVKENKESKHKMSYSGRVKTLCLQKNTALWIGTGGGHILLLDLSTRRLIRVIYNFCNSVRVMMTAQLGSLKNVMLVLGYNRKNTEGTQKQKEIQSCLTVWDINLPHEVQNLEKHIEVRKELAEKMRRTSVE
# Test method notes: LRRK2 degradation assay, HiBit-tagged wildtype LRRK2 expressed from plasmid in HEK293 cells (Nano-Glo Dual-Luciferase)
# Type: cell-based
# Assay conditions: HiBit-tagged wildtype LRRK2 in HEK293 cells, 24 hours; read-out: *WT DC50

Observe how each entry below is paired with its result.
| Compound | DC50 |
| --- | --- |
| CC1(Oc2ccc3n[nH]c(-c4cc(N5CCN(C(=O)C6CCN(CC7CCN(c8ccc9c(c8)C(=O)N(C8CCC(=O)NC8=O)C9=O)CC7)CC6)CC5)ncn4)c3c2)CC1 (stereo not shown) | < 0.01 µM |
| C[C@H]1CN(c2cc(-c3n[nH]c4ccc(OC5(C)CC5)cc34)ccn2)CCN1CC1(F)CCN(CC2CCN(c3ccc4c(c3)C(=O)N(C3CCC(=O)NC3=O)C4=O)CC2)CC1 (stereo partly shown) | < 0.01 µM |
| C[C@H]1CN(c2cc(-c3n[nH]c4cc(F)c(OC5(C)CC5)cc34)ncn2)CCN1CC1CCN(CC2CCN(c3ccc4c(c3)C(=O)N(C3CCC(=O)NC3=O)C4=O)CC2)CC1 (stereo partly shown) | < 0.01 µM |
| CC1(Oc2ccc3[nH]nc(-c4ccnc(N5CC(CN6CCN(CC7CCN(c8ccc9c(c8)C(=O)N(C8CCC(=O)NC8=O)C9=O)CC7)CC6)C5)c4)c3c2)CC1 (stereo not shown) | < 0.01 µM |
| CC1(Oc2ccc3[nH]nc(-c4ccnc(N5CCN(CC6CCN(C(=O)C7CCN(c8ccc9c(c8)C(=O)N(C8CCC(=O)NC8=O)C9=O)CC7)CC6)CC5)c4)c3c2)CC1 (stereo not shown) | < 0.01 µM |
| CC1(Oc2ccc3[nH]nc(-c4ccnc(N5CCC(C(=O)N6CCC(CC7CCN(c8ccc9c(c8)C(=O)N(C8CCC(=O)NC8=O)C9=O)CC7)CC6)CC5)c4)c3c2)CC1 (stereo not shown) | 0.01 to 0.05 µM |
| CC1(Oc2ccc3[nH]nc(-c4cc(N5CCC(C(=O)N6CCC(CC7CCN(c8ccc9c(c8)C(=O)N(C8CCC(=O)NC8=O)C9=O)CC7)CC6)CC5)ncn4)c3c2)CC1 (stereo not shown) | 0.01 to 0.05 µM |
| CC1(Oc2ccc3[nH]nc(-c4cc(N5CCN(CC(F)(F)C6CCN(CC7CCN(c8cccc9c8C(=O)N(C8CCC(=O)NC8=O)C9=O)CC7)CC6)CC5)ncn4)c3c2)CC1 (stereo not shown) | 0.01 to 0.05 µM |
| CC1(Oc2ccc3[nH]nc(-c4cc(N5CCC(O[C@H]6CCN(CC7CCN(c8ccc9c(c8)C(=O)N(C8CCC(=O)NC8=O)C9=O)CC7)C6)CC5)ncn4)c3c2)CC1 (stereo partly shown) | < 0.01 µM |

Tell me DC50 reported for C[C@H]1CN(c2cc(-c3n[nH]c4ccc(OC5(C)CC5)cc34)ncn2)CCN1C[C@@H]1CCN(CC2CCN(c3ccc4c(c3)C(=O)N(C3CCC(=O)NC3=O)C4=O)CC2)C1 (stereo partly shown)
< 0.01 µM

====

# Test system: G2019S LRRK2 (Homo sapiens, UniProt Q5S007, G2019S)
# Construct: expressed in transfected cells; host or cells: HEK293 (ATCC CRL-1573), transient transfection, mammalian expression vector with ubiquitin promoter
# Sequence (Q5S007 whole entry G2019S): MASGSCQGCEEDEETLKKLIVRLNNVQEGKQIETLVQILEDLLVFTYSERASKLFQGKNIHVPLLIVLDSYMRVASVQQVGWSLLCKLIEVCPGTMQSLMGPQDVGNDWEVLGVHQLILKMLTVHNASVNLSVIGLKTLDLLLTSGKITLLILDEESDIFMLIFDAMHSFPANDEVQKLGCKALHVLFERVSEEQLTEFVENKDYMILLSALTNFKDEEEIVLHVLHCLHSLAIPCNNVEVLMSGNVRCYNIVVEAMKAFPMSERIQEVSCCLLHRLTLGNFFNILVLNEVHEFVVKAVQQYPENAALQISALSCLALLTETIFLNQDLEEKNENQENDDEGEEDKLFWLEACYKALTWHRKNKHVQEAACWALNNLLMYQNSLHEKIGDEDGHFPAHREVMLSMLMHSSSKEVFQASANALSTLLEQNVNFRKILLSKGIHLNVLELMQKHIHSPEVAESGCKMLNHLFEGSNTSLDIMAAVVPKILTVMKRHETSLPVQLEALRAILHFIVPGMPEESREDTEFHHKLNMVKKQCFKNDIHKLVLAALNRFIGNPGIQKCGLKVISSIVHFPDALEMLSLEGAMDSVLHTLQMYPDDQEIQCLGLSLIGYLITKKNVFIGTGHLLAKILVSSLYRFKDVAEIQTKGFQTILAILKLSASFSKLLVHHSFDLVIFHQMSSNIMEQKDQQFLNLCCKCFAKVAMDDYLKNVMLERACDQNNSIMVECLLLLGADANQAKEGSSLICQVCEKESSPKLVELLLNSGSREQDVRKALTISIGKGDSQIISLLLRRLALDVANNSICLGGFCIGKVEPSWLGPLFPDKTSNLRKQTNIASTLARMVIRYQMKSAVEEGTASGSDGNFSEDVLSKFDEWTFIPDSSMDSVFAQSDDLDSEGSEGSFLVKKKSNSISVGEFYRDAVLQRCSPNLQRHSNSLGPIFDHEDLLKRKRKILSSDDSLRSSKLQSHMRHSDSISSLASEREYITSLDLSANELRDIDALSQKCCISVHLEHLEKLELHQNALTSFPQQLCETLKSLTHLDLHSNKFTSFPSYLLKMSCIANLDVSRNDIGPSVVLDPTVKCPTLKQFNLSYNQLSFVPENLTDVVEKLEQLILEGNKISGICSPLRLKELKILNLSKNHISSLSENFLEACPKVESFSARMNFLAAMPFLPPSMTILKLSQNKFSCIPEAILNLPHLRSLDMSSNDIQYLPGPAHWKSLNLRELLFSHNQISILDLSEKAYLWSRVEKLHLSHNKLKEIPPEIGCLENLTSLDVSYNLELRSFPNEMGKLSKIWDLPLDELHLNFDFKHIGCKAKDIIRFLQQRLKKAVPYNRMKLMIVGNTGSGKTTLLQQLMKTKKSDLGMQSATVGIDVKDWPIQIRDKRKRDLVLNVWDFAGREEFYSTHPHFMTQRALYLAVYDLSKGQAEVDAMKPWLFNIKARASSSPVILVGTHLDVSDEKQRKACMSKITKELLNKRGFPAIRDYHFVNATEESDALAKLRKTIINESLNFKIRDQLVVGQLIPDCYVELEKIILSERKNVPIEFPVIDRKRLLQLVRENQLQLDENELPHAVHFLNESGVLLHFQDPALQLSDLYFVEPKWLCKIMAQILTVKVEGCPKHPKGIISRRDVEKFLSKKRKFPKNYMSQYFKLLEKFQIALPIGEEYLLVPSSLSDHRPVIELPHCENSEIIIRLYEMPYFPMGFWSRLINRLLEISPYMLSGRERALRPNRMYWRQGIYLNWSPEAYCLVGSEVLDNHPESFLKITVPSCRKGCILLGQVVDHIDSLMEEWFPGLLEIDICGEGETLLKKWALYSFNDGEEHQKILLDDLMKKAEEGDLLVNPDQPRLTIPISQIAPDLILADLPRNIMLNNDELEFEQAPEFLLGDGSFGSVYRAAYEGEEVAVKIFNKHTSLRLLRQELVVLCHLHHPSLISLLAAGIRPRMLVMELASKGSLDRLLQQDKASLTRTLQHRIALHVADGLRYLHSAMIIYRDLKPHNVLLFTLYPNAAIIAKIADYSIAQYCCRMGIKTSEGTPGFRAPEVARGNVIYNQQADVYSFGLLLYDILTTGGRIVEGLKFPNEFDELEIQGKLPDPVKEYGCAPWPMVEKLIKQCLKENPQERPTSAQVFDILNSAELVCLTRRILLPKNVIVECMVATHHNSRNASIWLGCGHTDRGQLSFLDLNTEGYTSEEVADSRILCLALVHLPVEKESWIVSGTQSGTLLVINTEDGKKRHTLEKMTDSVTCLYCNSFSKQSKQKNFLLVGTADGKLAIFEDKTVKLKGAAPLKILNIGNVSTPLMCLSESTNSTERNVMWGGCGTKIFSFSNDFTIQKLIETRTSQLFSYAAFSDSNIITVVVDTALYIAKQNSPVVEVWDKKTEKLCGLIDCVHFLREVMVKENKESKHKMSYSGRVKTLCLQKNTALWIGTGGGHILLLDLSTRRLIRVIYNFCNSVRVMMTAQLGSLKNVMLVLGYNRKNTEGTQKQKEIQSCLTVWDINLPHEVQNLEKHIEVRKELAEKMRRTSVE
# Test method notes: LRRK2 degradation assay, HiBit-tagged G2019S LRRK2 expressed from plasmid in HEK293 cells (Nano-Glo Dual-Luciferase)
# Type: cell-based
# Assay conditions: HiBit-tagged G2019S LRRK2 in HEK293 cells, 24 hours
Endpoint name: Dmax

Here are 8 compounds together with their reported answers.
| Compound | Dmax |
| --- | --- |
| CC1(Oc2ccc3[nH]nc(-c4cc(N5CCC(O[C@H]6C[C@H](OC7CCN(c8ccc9c(c8)C(=O)N(C8CCC(=O)NC8=O)C9=O)CC7)C6)CC5)ncn4)c3c2)CC1 (some centres unmarked) | < 50% |
| CC1(Oc2ccc3[nH]nc(-c4ccnc(N5CCC(CN6CCN(CC7CCN(c8ccc9c(c8)C(=O)N(C8CCC(=O)NC8=O)C9=O)CC7)CC6)CC5)c4)c3c2)CC1 (centres unmarked) | 50 to 70% |
| CC1(Oc2ccc3[nH]nc(-c4cc(N5CCC(CN6CC[C@@H](CN7CCN(c8ccc9c(c8)C(=O)N(C8CCC(=O)NC8=O)C9=O)CC7)C6)CC5)ncn4)c3c2)CC1 (some centres unmarked) | 50 to 70% |
| CC1(Oc2ccc3[nH]nc(-c4ccnc(N5CCN(CC6(F)CCN(C(=O)C7CCN(c8ccc9c(c8)C(=O)N(C8CCC(=O)NC8=O)C9=O)CC7)CC6)CC5)c4)c3c2)CC1 (centres unmarked) | < 50% |
| C[C@H]1CN(c2cc(-c3[nH]nc4ccc(OC5(C)CC5)cc34)ncn2)CCN1CCC1(F)CCN(CC2CCN(c3ccc4c(c3)CN(C3CCC(=O)NC3=O)C4=O)CC2)CC1 (some centres unmarked) | ≥ 70% |
| CC1(Oc2ccc3[nH]nc(-c4ccnc(N5CCC(C(=O)N6CCC(CC7CCN(c8ccc9c(c8)C(=O)N(C8CCC(=O)NC8=O)C9=O)CC7)CC6)CC5)c4)c3c2)CC1 (centres unmarked) | < 50% |
| CC1(Oc2ccc3n[nH]c(-c4cc(N5CC(F)(CN6CCN(CC7CCN(c8ccc9c(c8)C(=O)N(C8CCC(=O)NC8=O)C9=O)CC7)CC6)C5)ncn4)c3c2)CC1 (centres unmarked) | ≥ 70% |
| CC1(Oc2ccc3n[nH]c(-c4cc(N5CCN(CC6(F)CCN(C(=O)C7CCN(c8ccc9c(c8)C(=O)N(C8CCC(=O)NC8=O)C9=O)CC7)CC6)CC5)ncn4)c3c2)CC1 (centres unmarked) | 50 to 70% |

Okay, next one:
Report measured Dmax on G2019S LRRK2 (Homo sapiens, UniProt Q5S007, G2019S); entry: C[C@H]1CN(c2cc(-c3n[nH]c4ccc(OC5(C)CC5)cc34)ncn2)CCN1CC1CCN(CCCNc2cccc3c2C(=O)N(C2CCC(=O)NC2=O)C3=O)CC1 (some centres unmarked)
< 50%
